system: A. niger MMX 0624 ATCC 16888; assay: MIC/MEC assay (CLSI microdilution); type: cell-based; conditions: Aspergillus niger, ATCC16888, 48 h, RPMI plus 0.002% Tween-80, read-out: MIC
Numbered stars: 1 amine (or outer) side, 2 acyl side, 3 side chain; on linkers, the order of the positions; unused ones are H or OH. Square brackets hold non-standard residues; d marks the D form. Peptide text beside a SMILES is read from it. X18 = CN([C@@H](Cc1cccc(-c2ccc3ccncc3c2)c1)C(=O)[*:2])[*:1]; Hmp(2R,3S) = CC[C@H](C)[C@@H](O)C(=O)O; NMeVal(β-OH) = CN[C@H](C(=O)O)C(C)(C)O; NMeV = CN[C@H](C(=O)O)C(C)C
QUANTITY_NAME: MIC (µg/mL)
Quick note: give the figure in µg/mL, leave out the unit.

Ask | Can you look up MIC on A. niger MMX 0624 ATCC 16888 for CC[C@H](C)[C@@H]1NC(=O)[C@@H]2CCCN2C(=O)[C@H](Cc2cccc(-c3ccc4ccncc4c3)c2)N(C)C(=O)[C@H](Cc2ccccc2)NC(=O)[C@H](C(C)C)N(C)C(=O)[C@@H]([C@@H](C)CC)OC(=O)[C@H](C(C)(C)O)N(C)C(=O)[C@H](CC(C)C)NC(=O)[C@H](C(C)C)N(C)C1=O [Compound 17] (cyclo(F[X18]PI[NMeV]L[NMeVal(β-OH)][Hmp(2R,3S)][NMeV])) ?
Reply | 0.12

====

Reported MIC values are given for each entry in this list.
test system: C. parapsilosis MMX 2323 ATCC 22019; experiment: MIC assay (CLSI microdilution); format: cell-based, Candida parapsilosis; details: ATCC22019, Without Tween-80; read-out: MIC
Numbered stars: 1 amine (or outer) side, 2 acyl side, 3 side chain; on linkers, the order of the positions; unused ones are H or OH. Square brackets hold non-standard residues; d marks the D form. Peptide text beside a SMILES is read from it. X28 = CN([C@@H](Cc1cccc(-c2ccc(C(F)(F)F)cc2)c1)C(=O)[*:2])[*:1]; X22 = CN([C@@H](Cc1cccc(-c2cncc3ccccc23)c1)C(=O)[*:2])[*:1]; Hmp(2R,3S) = CC[C@H](C)[C@@H](O)C(=O)O; NMeVal(β-OH) = CN[C@H](C(=O)O)C(C)(C)O; NMeV = CN[C@H](C(=O)O)C(C)C
Quick note: give the figure in µg/mL, leave out the unit.

>  <MOLECULE>
CC[C@H](C)[C@@H]1NC(=O)[C@@H]2CCCN2C(=O)[C@H](Cc2cccc(-c3cncc4ccccc34)c2)N(C)C(=O)[C@H](Cc2ccccc2)NC(=O)[C@H](C(C)C)N(C)C(=O)[C@@H]([C@@H](C)CC)OC(=O)[C@H](C(C)(C)O)N(C)C(=O)[C@H](CC(C)C)NC(=O)[C@H](C(C)C)N(C)C1=O [Compound 29] (cyclo(F[X22]PI[NMeV]L[NMeVal(β-OH)][Hmp(2R,3S)][NMeV]))

>  <REPORTED>
1

$$$$

# next molecule below
Ask | Dear colleague, I am looking for the recorded MIC of the following molecule: CC[C@H](C)[C@@H]1NC(=O)[C@@H]2CCCN2C(=O)[C@H](Cc2cccc(-c3ccc(C(F)(F)F)cc3)c2)N(C)C(=O)[C@H](Cc2ccccc2)NC(=O)[C@H](C(C)C)N(C)C(=O)[C@@H]([C@@H](C)CC)OC(=O)[C@H](C(C)(C)O)N(C)C(=O)[C@H](CC(C)C)NC(=O)[C@H](C(C)C)N(C)C1=O [Compound 3] (cyclo(F[X28]PI[NMeV]L[NMeVal(β-OH)][Hmp(2R,3S)][NMeV]))
Reply | 2

Data provenance: patent US11066447B2
